Test system: muscle progenitors derived from DMD hiPSC
Experiment: Myotube assay: total myotube area per well (alpha-actinin staining)
Format: cell-based, human
Settings: Homo sapiens, Myotube, 72 h, myogenic activity, half-maximal generation of myotubes; 10 points dose-response 1.5 nM to 30 µM; 3 days; DMD or WT cell source not given
pEC50: −log10 of the molar value.

smiles_record | study_target | pEC50
CC(=O)Nc1cc(Oc2ccc(NC(=O)Nc3cc(C(C)(C)C)nn3-c3ccccc3)c3ccccc23)ccn1 | muscle progenitors derived from DMD hiPSC | > 6.30
CC(C)(C)c1cc(NC(=O)Nc2cc(Oc3ccnc4[nH]c(=O)cnc34)ccc2F)n(-c2ccccc2)n1 | muscle progenitors derived from DMD hiPSC | 6.00 to 6.30
CSc1cc(Oc2ccnc3[nH]c(=O)cnc23)ccc1NC(=O)Nc1cc(C(C)(C)C)nn1CCCN1CCOCC1 | muscle progenitors derived from DMD hiPSC | ≤ 5.30
CC(C)Cc1cc(NC(=O)Nc2ccc(Oc3ccnc4[nH]c(=O)cnc34)cc2F)n(-c2ccccc2)n1 | muscle progenitors derived from DMD hiPSC | 6.00 to 6.30
CNC(=O)c1cncc(Oc2ccc(NC(=O)Nc3cc(C(C)(C)C)nn3-c3ccccc3)c(SC)c2)c1 | muscle progenitors derived from DMD hiPSC | 6.00 to 6.30
CSc1cc(Oc2ccnc3c2CCC(=O)N3)ccc1NC(=O)Nc1ncc(C(C)(C)C)s1 | muscle progenitors derived from DMD hiPSC | > 6.30
CSc1cc(Oc2ccnc3[nH]c(=O)cnc23)ccc1NC(=O)Nc1nc(C(C)(C)C)cs1 | muscle progenitors derived from DMD hiPSC | ≤ 5.30
CC(=O)Nc1cc(Oc2ccc(NC(=O)Nc3cc(C(C)(C)C)nn3-c3ccccc3)c(F)c2)ccn1 | muscle progenitors derived from DMD hiPSC | ≤ 5.30
